Source: the METLIN SMRT retention time set (Domingo-Almenara et al. 2019)

Assay: gradient 5% acetonitrile 3 min, to 50% in 2 min, to 85% in 15 min, held 3 min, 100 µL/min
Settings: column: Zorbax Extend-C18 2.1 x 50 mm; eluents: water / acetonitrile, 0.1% formic acid
For each record, write down the corresponding RP-LC retention time.

Please review the entries below; each comes with its answer.
CCN1C(=O)COc2ccc(-c3noc(-c4ccccc4C(F)(F)F)n3)cc21: 1140 s
CCc1ccc(C(=O)NCCc2nc3cccnc3n2CC)cc1: 694 s
O=C(NCCOc1cccc2cccnc12)c1cccc(-n2cnnn2)c1: 574 s
CC1CCN(c2cnn(CC(=O)Nc3ccc4c(c3)CCC4)c(=O)c2Cl)CC1: 1030 s
Cc1cccc(NS(=O)(=O)c2cc(-c3[nH]ncc3C(=O)N(C)C)oc2C)c1C: 712 s
Cc1ccc(-c2nc(-c3ccc4oc(C)nc4c3)no2)cc1: 1180 s
CCS(=O)(=O)Nc1cccc(C(=C2CCCCC2)c2cnc[nH]2)c1: 738 s
Cc1cc(Br)ccc1NC(=O)C1CCCN(c2ncnc3c2nc2n3CCCCC2)C1 (stereo not given): 895 s

Okay, here is my list. What is RP-LC retention time for each of these?
1. CCCS(=O)(=O)N1CCC(F)(F)C(COCc2cccnc2)C1 (stereo not given)
2. CSc1ccc(-c2nc3ncccn3c2Nc2ccc(C)c(C)c2)cc1
3. CC1=NS(=O)(=O)N(Cc2ccccc2)C=C1C(=O)OCc1ccc(C(C)(C)C)cc1
4. CN(Cc1ccccc1)C(=O)c1ccc(NC(=O)[C@H]2[C@@H]3C[C@@H]4[C@H]2C(=O)O[C@@H]4C3)cc1

Result ::
["656 s", "889 s", "1320 s", "775 s"]

Hello, I would appreciate it if you could give RP-LC retention time for each entry below.
1. CCN(C(=O)Nc1ccccc1C(F)(F)F)c1nc(-c2ccc(C)cc2)cs1
2. COc1cc(OC)c(NC(=O)NCC(c2cccnc2)c2c[nH]c3ccccc23)cc1Cl (stereo not given)
3. O=C(Cn1c(=O)c2cccn2c2ccc(F)cc21)N1CCCCCC1
4. CCc1ccc(NC(=O)N2CCN(Cc3nc4ccccc4o3)CC2)cc1

Result ::
["576 s", "706 s", "840 s", "738 s"]

List the reported RP-LC retention time of each compound below.
1. CCCNC(=O)Cn1c(CC)nc2ccccc21
2. CC(C)C(NC(=O)c1ccsc1)C(=O)Nc1nc2ccccc2[nH]1 (stereo not given)
3. O=C(c1cc2ccccc2o1)N1CCCC(c2nnc(C(F)(F)F)o2)C1 (stereo not given)
4. COCCCNC(=O)c1csc(-c2cnccn2)n1

Result ::
1. 578 s
2. 666 s
3. 872 s
4. 625 s

---

Exercise: state measured RP-LC retention time for each of the compounds provided.
Test: gradient 5% acetonitrile 3 min, to 50% in 2 min, to 85% in 15 min, held 3 min, 100 µL/min
Conditions: column: Zorbax Extend-C18 2.1 x 50 mm; eluents: water / acetonitrile, 0.1% formic acid
Answers are plain numbers, in s.

Cc1ccccc1Nc1c(-c2ccccc2O)nc2ccc(Br)cn12: 1050
CCN1c2ccc(C)cc2C(=O)NC12CCN(C(=O)c1ccc(F)cc1)CC2: 828
CC1CN(C(=O)Cn2cc(SCC(=O)NC3CCCC3)c3ccccc32)CC(C)O1 (stereo unspecified): 826

Please report RP-LC retention time for every entry that follows.
1. Cc1nc(C)c(C(=O)N2CC(N(CC(C)C)C3CCN(C)CC3)C2)s1
2. Cc1ccc(S(=O)(=O)N2CCC3(CC2)NCCN=C3NCc2ccccc2F)c(C)c1
3. Cc1cc2[nH]c(C(=O)Nc3cccc(Cl)c3F)c(CN3CCOCC3)c2s1
4. Cc1ccc(S(=O)(=O)N2CCC(n3cnc4ccc(C)cc4c3=O)CC2)cc1
5. CC1CCN(C2=NCCN2C(=O)c2c(F)cccc2F)CC1
6. O=C(Nc1ccccc1C(F)(F)F)c1csc(-c2ccc(N3CCCC3)nc2)n1

Result ::
1: 567; 2: 747; 3: 768; 4: 925; 5: 660; 6: 890

Required: RP-LC retention time, one value per compound below.
1. CCOc1ccc(C(=O)N2CCC(c3cc(N)on3)CC2)cc1
2. O=C(c1c[nH]c2ncccc12)N1CCCC1
3. CCc1ccc(NC(=O)Nc2cccc(-c3nnc4n3CCCC4)c2)cc1
4. Cc1ccc2c(Nc3ccc(CC(=O)O)cc3)c(C(=O)N3CCCCC3C)cnc2n1 (stereo unspecified)
5. O=C(Cn1nc(C(=O)N2CCCC2)c2ccccc21)Nc1cccc(Br)c1
6. Cc1cc(C)nc(N2CCN(c3cc(C)nc4c(C)c(-c5ccc(Cl)cc5)nn34)CC2)n1
7. CN1CC(=O)NC(c2ccccc2F)C1=O (stereo unspecified)

Result ::
686
589
736
580
903
1020
513

List RP-LC retention time for every entry below, keeping the order given.
1. COC(=O)c1cc(OC)c(OC)cc1NC(=O)NCCc1c[nH]c2ccccc12
2. CCn1c(CCNC(=O)c2ccccc2)nc2cccnc21
3. FC(F)(F)c1cccc(-c2ccc(CNC3CC3)o2)c1
4. COc1ccccc1CNC(=O)c1nc(N2CCOCC2)c2c(C)cc(C)nc2n1
5. CCn1cc(CCNC(=O)NCC(=O)OC)c2cccnc21

Result ::
876
598
695
643
574
